Where do these numbers come from? They come from patent US20170217964A1.

This section lists IC50 readings for DPP-4 enzyme (Homo sapiens).
Test Readout: IC50 (pM)

A = N[C@H]1C[C@@H](N2Cc3cn(S(=O)(=O)N4CCCCC4)nc3C2)CO[C@@H]1c1cc(F)ccc1F
B = N[C@H]1C[C@@H](N2Cc3cn(S(=O)(=O)N4CCC4)nc3C2)CO[C@@H]1c1cc(F)ccc1F
For A and B , which recorded IC50 is lower? Choose, then provide that item's label. B
(B: 500 pM, A: 800 pM)
